- Measured Target: DYRK1A (Homo sapiens)
- Construct: purchased Carna Biosciences, Inc. 04-130
- Assay: Inhibition test on activity of DYRK family, mobility shift assay (MSA): DYRK1A
- Format: biochemical
- Settings: MSA, FITC-labeled DYRKtide peptide, ATP 100 μM; read-out: Inhibitory activity DYRK 1A (IC50 class)
pIC50: −log10 of the molar value.
// reported pIC50 per item

Please review the entries below; each comes with its answer.
INSERT INTO measurements (compound, recorded_value) VALUES
  ('CN1CCC[C@@H]2NC(=O)N(c3nc4c5c(ccc4s3)OCC5)[C@@H]2C1 (relative stereo) [Example 17]', '7.00 to 8.00'),
  ('C[C@H]1[C@H]2NC(=O)N(c3nc4c5c(ccc4s3)OCC5)C2CCN1C (stereo partly shown) [Example 91]', '7.00 to 8.00'),
  ('CN1C[C@H]2NC(=O)N(c3nc4c5c(ccc4s3)OCC5)[C@H]2C1 (relative stereo) [Example 14]', '7.00 to 8.00');

Turning now to a further record.
// pIC50 value for O=C1N[C@H]2COCC[C@H]2N1c1nc2c3c(ccc2s1)OCO3 [Example 21] : > 8.00
